Data provenance is patent US20020173538A1.

system: Hep G2 cells; assay: MTT cell viability assay, Hep G2 cells (serum-free DMEM); details: Homo sapiens, HepG2, 96 h, read-out: IC50 (cell viability), 96 hr
Recorded IC50 for the following compounds
Give a bare numeral; the unit µM is implied.

compound	assay_target	value
CC(=O)O[C@H]1C(=O)[C@@]2(C)[C@H]([C@H](OC(=O)c3ccccc3)[C@]3(O)C[C@H](OC(=O)[C@H](O)[C@@H](NC(=O)c4ccccc4)c4ccccc4)C(C)=C1C3(C)C)[C@]1(OC(C)=O)CO[C@@H]1C[C@@H]2O [Taxol, paclitaxel]	Hep G2 cells	0.0036

Here is another compound to look at.
Short answer on Hep G2 cells for CC[C@H](C)C(=O)O[C@H]1C[C@@H](C)C=C2C=C[C@H](C)[C@H](CC[C@@H]3C[C@@H](O)CC(=O)O3)[C@H]21 [Lovastatin, lovastatin] , IC50: 13.1
